- Tested on: A375
- Measurement Description: Cytotoxicity, A375 cells
- Assay type: cell-based, human
- Cond: Table 3, unit μM; read-out: Cytotoxicity data A375 mean
Quantity Kind: IC50 (µM)
Please reply with the bare figure in µM and do not write the unit itself.

Ask | Query for A375: what IC50 does the record show for N.N.[Cl-].[Cl-].[OH-].[OH-].[Pt+4] [Oxoplatin, oxoplatin] ?
Reply | 2.21

###

- System: A375
- Measurement Description: Cytotoxicity, A375 cells
- Assay type: cell-based, human
- Cond: Table 3, unit nM; read-out: Cytotoxicity data A375 mean
Quantity Kind: IC50 (nM)
Express the result in nM but write the number alone.

Ask | I am curious: what IC50 value has been reported for COc1ccc(/C=C\c2cc(OC)c(OC)c(OC)c2)cc1O ?
Reply | 1.63

###

- Tested on: PC9
- Measurement Description: Cytotoxicity, PC9 cells
- Assay type: cell-based, human
- Cond: Table 3, unit nM; read-out: Cytotoxicity data PC9 mean
Quantity Kind: IC50 (nM)
Give the value in nM but do not write nM after it.

Ask | For the molecule COc1ccc(/C=C\c2cc(OC)c(OC)c(OC)c2)cc1O [CA4, combretastatin-A4] , what IC50 is on record?
Reply | 4.87

###

- Test system: A2780
- Measurement Description: MTT cytotoxicity, ovarian cancer cells A2780
- Assay type: cell-based, human
- Cond: Table 3, unit μM; read-out: Cytotoxicity data A2780 mean
Quantity Kind: IC50 (µM)
Number only, in µM; omit the unit.

Ask | Look up IC50: N.N.[Cl-].[Cl-].[OH-].[OH-].[Pt+4] [Oxoplatin, oxoplatin]
Reply | 0.45

###

- Test system: A2780cisR
- Measurement Description: MTT cytotoxicity, cisplatin resistant line A2780cisR
- Assay type: cell-based, human
- Cond: Table 3, unit μM; read-out: Cytotoxicity data A2780 res mean
- Protocol: Cell cultures. The human ovarian A2780 and A2780cisR cancer were obtained from the American Type Culture Collection (ATCC, Rockville, Md.). […] The growth inhibitory effect towards human cell lines was evaluated by means of MTT (tetrazolium salt reduction) assay. […]
Quantity Kind: IC50 (µM)
Please respond with the number in µM and leave the unit unwritten.

Ask | Data request, read-out IC50, for N.N.[Cl-].[Cl-].[OH-].[OH-].[Pt+4]
Reply | 1.17

###

- Measurement Description: physchem
- Assay type: physicochemical
Quantity Kind: half-life at 3.3 mM (min)
Please give a number only; it is taken to be in min.

Ask | For CC(=O)OC1C(=O)C2(C)C(O)CC3OCC3(OC(C)=O)C2C(OC(=O)c2ccccc2)C2(O)CC(OC(=O)C(OC(=O)[O][Pt]([NH2])([NH2])([OH])([Cl])[Cl])C(NC(=O)c3ccccc3)c3ccccc3)C(C)=C1C2(C)C (stereo not shown) [ctc-[Pt(NH3)2(Tax-Carb)(OH)Cl2]] , what is its reported half-life at 3.3 mM?
Reply | 25

###

- Tested on: PC9
- Measurement Description: Cytotoxicity, PC9 cells
- Format: cell-based, human
- Cond: Table 3, unit μM; read-out: Cytotoxicity data PC9 mean
Quantity Kind: IC50 (µM)
Answer in µM, number only, no unit symbol.

Ask | I have this compound here, N.N.[Cl-].[Cl-].[OH-].[OH-].[Pt+4] , and I need its recorded IC50.
Reply | 3.99

###

- System: A2780cisR
- Measurement Description: MTT cytotoxicity, cisplatin resistant line A2780cisR
- Type: cell-based, human
- Cond: Table 3, unit nM; read-out: Cytotoxicity data A2780 res mean
Quantity Kind: IC50
Entry format: amount then unit.

Ask | Quick check: IC50 of COc1ccc(/C=C\c2cc(OC)c(OC)c(OC)c2)cc1O [CA4, combretastatin-A4] ?
Reply | 2.63 nM
